Tested on: Bel-7402
protocol-description: Cytotoxicity against human Bel-7402 cells after 72 hrs by sulforhodamine B assay
Format: functional, cell-based
condition-context: Bel-7402, 72 h
attribute-measured: IC50

Completed entries (count: 2):
compound	IC50
CO[C@@H]1[C@@H](O)[C@H](O[C@@H]2[C@@H](O)[C@H](O[C@H]3[C@H](O)[C@@H](O)[C@H](O[C@H]4[C@H](O[C@H]5CC[C@]6(C)C7=C[C@H](O)[C@@]89C(=O)O[C@@](C)(C%10CCC(C)(C)O%10)[C@H]8CC[C@@]9(C)[C@@H]7CC[C@H]6C5(C)C)OC[C@@H](OS(=O)(=O)O)[C@@H]4O)O[C@@H]3C)O[C@H](CO)[C@H]2O)O[C@H](CO)[C@H]1O (stereo partly drawn) [FUSCOCINEROSIDE C]	0.58 µM
CO[C@@H]1[C@@H](O)[C@H](O[C@@H]2[C@@H](O)[C@H](O[C@H]3[C@H](O)[C@@H](O)[C@H](O[C@H]4[C@H](O[C@H]5CC[C@]6(C)C7=C[C@H](O)[C@@]89C(=O)O[C@@](C)(C(=O)CCC(C)C)[C@H]8CC[C@@]9(C)[C@@H]7CC[C@H]6C5(C)C)OC[C@@H](OS(=O)(=O)O)[C@@H]4O)O[C@@H]3C)O[C@H](CO)[C@H]2O)O[C@H](CO)[C@H]1O [FUSCOCINEROSIDE B]	2.64 µM

For the next question, use this compound.
stdin: State the recorded IC50 for this entry: CO[C@@H]1[C@@H](O)[C@H](O[C@@H]2[C@@H](O)[C@H](O[C@H]3[C@H](O)[C@@H](O)[C@H](O[C@H]4[C@H](O[C@H]5CC[C@]6(C)C7=C[C@H](O)[C@@]89C(=O)O[C@@](C)(C%10CCC(C)(C)O%10)[C@@]8(O)CC[C@@]9(C)[C@@H]7CC[C@H]6C5(C)C)OC[C@@H](OS(=O)(=O)O)[C@@H]4O)O[C@@H]3C)O[C@H](CO)[C@H]2O)O[C@H](CO)[C@H]1O (stereo partly drawn) [HOLOTHURIN A]
stdout: 0.76 µM

* * *

Test system: Bel-7402
protocol-description: Cytotoxicity against human Bel-7402 cells after 72 hrs by sulforhodamine B assay
Format: functional, cell-based
condition-context: Bel-7402, 72 h
For each record, write down the corresponding IC50.
A complete answer gives the number followed by the unit.

Completed entries (count: 2):
compound	IC50
CO[C@@H]1[C@@H](O)[C@H](O[C@@H]2[C@@H](O)[C@H](O[C@H]3[C@H](O)[C@@H](O)[C@H](O[C@H]4[C@H](O[C@H]5CC[C@]6(C)C7=C[C@H](O)[C@@]89C(=O)O[C@@](C)(CCCC(C)C)[C@H]8CC[C@@]9(C)[C@@H]7CC[C@H]6C5(C)C)OC[C@@H](OS(=O)(=O)O)[C@@H]4O)O[C@@H]3C)O[C@H](CO)[C@H]2O)O[C@H](CO)[C@H]1O [PERVICOSIDE C]	660 nM
CO[C@@H]1[C@@H](O)[C@H](O[C@@H]2[C@@H](O)[C@H](O[C@H]3[C@H](O)[C@@H](O)[C@H](O[C@H]4[C@H](O[C@H]5CC[C@]6(C)C7=C[C@H](O)[C@@]89C(=O)O[C@@](C)(C(=O)CCC(C)(C)OC(C)=O)[C@H]8CC[C@@]9(C)[C@@H]7CC[C@H]6C5(C)C)OC[C@@H](OS(=O)(=O)O)[C@@H]4O)O[C@@H]3C)O[C@H](CO)[C@H]2O)O[C@H](CO)[C@H]1O [FUSCOCINEROSIDE A]	5580 nM

For the next question, use this compound.
stdin: State the recorded IC50 for this entry: CC[C@@]1(O)C(=O)OCc2c1cc1n(c2=O)Cc2cc3cc(O)ccc3nc2-1 [HYDROXYCAMPTOTHECIN]
stdout: 280 nM
